Biological target: Glycine receptor (Rattus norvegicus, UniProt P07727)
Sequence (P07727 29-457): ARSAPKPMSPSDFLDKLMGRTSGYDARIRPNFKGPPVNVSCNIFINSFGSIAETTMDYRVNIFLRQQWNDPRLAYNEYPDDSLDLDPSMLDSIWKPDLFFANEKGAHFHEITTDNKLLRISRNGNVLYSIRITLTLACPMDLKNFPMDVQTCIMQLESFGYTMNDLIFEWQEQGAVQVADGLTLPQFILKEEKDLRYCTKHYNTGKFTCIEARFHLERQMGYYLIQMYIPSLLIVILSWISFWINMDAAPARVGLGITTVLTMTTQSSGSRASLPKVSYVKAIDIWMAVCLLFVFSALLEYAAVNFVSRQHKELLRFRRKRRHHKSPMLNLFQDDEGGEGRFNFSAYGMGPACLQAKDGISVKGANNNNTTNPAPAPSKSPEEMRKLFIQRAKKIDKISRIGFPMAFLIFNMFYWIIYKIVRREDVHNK
Sequence (P20781 23-496, further chain): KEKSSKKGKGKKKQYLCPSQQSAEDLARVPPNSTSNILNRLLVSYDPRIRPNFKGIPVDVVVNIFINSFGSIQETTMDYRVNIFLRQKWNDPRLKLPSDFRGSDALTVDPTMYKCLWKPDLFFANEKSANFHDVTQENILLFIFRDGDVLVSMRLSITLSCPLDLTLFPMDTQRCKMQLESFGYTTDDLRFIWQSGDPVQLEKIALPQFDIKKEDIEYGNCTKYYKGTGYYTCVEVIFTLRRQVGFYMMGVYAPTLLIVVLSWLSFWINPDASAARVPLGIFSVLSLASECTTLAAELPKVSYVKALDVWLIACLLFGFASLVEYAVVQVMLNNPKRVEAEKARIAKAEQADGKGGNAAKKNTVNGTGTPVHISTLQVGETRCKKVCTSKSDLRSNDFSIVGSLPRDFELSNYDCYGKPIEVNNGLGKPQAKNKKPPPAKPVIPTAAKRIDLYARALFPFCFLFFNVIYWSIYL

[
  {
    "Item Smiles": "O=C1C[C@@H]2OCC=C3CN4CC[C@]56c7ccccc7N1[C@H]5[C@H]2[C@H]3C[C@H]46",
    "IC50 [nM]": 26.9
  }
]

---

Target: GABA-A receptor
Conditions: dose displacing 50% of tritiated muscimol; nonlabelled muscimol

[
  {
    "Molecule": "NCc1cc(=O)[nH]o1 [muscimol]",
    "IC50": "8.2 nM"
  }
]
